Measured cell viability, listed per entry for reference.
System: Vero E6
Assay Explanation: cell viability relative to DMSO; higher = less toxic
Condition Set: 72 h; 10000 nM
# unit: % | format: bare number

Answered cases to consult:
molecule CC(C)[C@]12O[C@H]1[C@@H]1O[C@]13[C@]1(O[C@H]1C[C@H]1C4=C(CC[C@@]13C)C(=O)OC4)[C@@H]2O [triptolide] , cell viability observed: 5.1

molecule Cc1cccc(-c2[nH]c(CNc3ccccc3F)nc2-c2ccc3ncnn3c2)n1 , cell viability observed: 98.7

molecule CO[C@@H](C(=O)N1Cc2[nH]nc(NC(=O)c3ccc(N4CCN(C)CC4)cc3)c2C1)c1ccccc1 , cell viability observed: 84.2

molecule O=C(CCCN1CCC2(CC1)C(=O)NCN2c1ccccc1)c1ccc(F)cc1 , cell viability observed: 98.3

molecule CC(C)(C)C(=O)OCOC(=O)[C@@H]1N2C(=O)[C@@H](NC(=O)[C@H](N)c3ccccc3)[C@H]2SC1(C)C , cell viability observed: 102

molecule O=P(O)(O)C(O)(Cc1cnc2ccccn12)P(=O)(O)O , cell viability observed: 98.1

More entries:
molecule COC1=C(OC)C(=O)C(CCCCCCCCCCO)=C(C)C1=O , cell viability observed: 97.7

molecule CC(=O)N[C@@H](CSSC[C@H](NC(C)=O)C(=O)O)C(=O)O , cell viability observed: 99.2

###

Measured drug sensitivity score, listed per entry for reference.
System: Vero E6
Assay Explanation: drug sensitivity score (DSS) for viability; higher = more toxic; extreme values may be limits of the assay
Condition Set: 72 h
Please reply with the number alone, leaving off any unit.

Answered cases to consult:
compound CNC(=O)c1cnn(-c2nc(N)c3ncn([C@@H]4O[C@H](CO)[C@@H](O)[C@H]4O)c3n2)c1 [regadenoson] , drug sensitivity score observed: 0

compound Cc1ccc(NC(=O)c2ccc(CN3CCN(C)CC3)cc2)cc1Nc1nccc(-c2cccnc2)n1 [imatinib] , drug sensitivity score observed: 0

compound O=C(O)CCc1c[nH]c2ccccc12 , drug sensitivity score observed: 0

compound Cc1ccc(C)c(OCCCC(C)(C)C(=O)O)c1 [gemfibrozil] , drug sensitivity score observed: 0

More entries:
compound COc1ccc(C2CNC(=O)NC2)cc1O[C@H]1C[C@@H]2CC[C@H]1C2 [atizoram] , drug sensitivity score observed: 0.1

###

System: HepG2
Assay Explanation: cell viability relative to DMSO; higher = less toxic
Condition Set: 72 h; 1000 nM
Measured cell viability, listed per entry for reference.

Tested on HepG2, the item O=[N+]([O-])c1cn2c(n1)OC[C@@H](OCc1ccc(OC(F)(F)F)cc1)C2 showed cell viability equal to 96.3%

More entries:
Tested on HepG2, the item Clc1cc(Cl)c(OCC#CI)cc1Cl showed cell viability equal to 91%

Tested on HepG2, the item CC(C)(O)c1ccn2c(-c3ccc(F)c(-c4ccc(F)cc4C#N)c3)cnc2c1F showed cell viability equal to 103%

Tested on HepG2, the item CN1CCC(c2c[nH]c3ccc(O)cc23)CC1 showed cell viability equal to 83.4%

Tested on HepG2, the item OCc1cc(C(O)CNCCCCCCOCCCCc2ccccc2)ccc1O (stereo unspecified) showed cell viability equal to 105%

Tested on HepG2, the item CCC(C)(CN(C)C)OC(=O)c1ccccc1 (stereo unspecified) showed cell viability equal to 98.1%

Tested on HepG2, the item CNCCC(Oc1ccccc1OC)c1ccccc1 (stereo unspecified) showed cell viability equal to 108%

Tested on HepG2, the item CN1c2ccccc2C(=O)N2CCc3c([nH]c4ccccc34)C21 (stereo in doubt) showed cell viability equal to 47.3%

Tested on HepG2, the item CCn1cnc(C(=O)NC)c1C(=O)NC showed cell viability equal to 104%

Tested on HepG2, the item COC1=C(OC)C(=O)C(CCCCCCCCCCO)=C(C)C1=O showed cell viability equal to 95.9%

Tested on HepG2, the item Cc1cc(C)cc(NC(=O)Cc2ccc(OC(C)(C)C(=O)O)cc2)c1 showed cell viability equal to 101%

Tested on HepG2, the item O=C(CCCN1CCC2(CC1)C(=O)NCN2c1ccccc1)c1ccc(F)cc1 showed cell viability equal to 91.1%

Tested on HepG2, the item CN(C)C/C=C/C(=O)Nc1cccc(C(=O)Nc2cccc(Nc3ncc(Cl)c(-c4c[nH]c5ccccc45)n3)c2)c1 showed cell viability equal to 3.5%

Tested on HepG2, the item C[C@@H](C(=O)O)c1ccc(-c2ccccc2)c(F)c1 (racemic) [flurbiprofen-(+/-)] showed cell viability equal to 101%

Tested on HepG2, the item CC(=O)Oc1ccc(C(c2ccc(OC(C)=O)cc2)c2ccccn2)cc1 showed cell viability equal to 95.1%

Tested on HepG2, the item CNC(=O)c1cc(Oc2ccc(NC(=O)Nc3ccc(Cl)c(C(F)(F)F)c3)c(F)c2)ccn1 showed cell viability equal to 59.8%

Tested on HepG2, the item COc1ccc2c(c1)C(C(=O)N(Cc1ccc(N(C)C)cc1)c1ccc(C(C)C)cc1)CCC2 (stereo unspecified) showed cell viability equal to 109%

Tested on HepG2, the item NC(=O)c1ccc(N(C(N)=O)c2c(F)cccc2F)nc1-c1ccc(F)cc1F showed cell viability equal to 110%

Tested on HepG2, the item COc1cc2c(NC3CCN(C(C)C)CC3)nc(N3CCC(F)(F)CC3)nc2cc1OCCCN1CCCC1 showed cell viability equal to 102%

Tested on HepG2, the item Cc1cc(Nc2ncnc3ccc(NC4=NC(C)(C)CO4)cc23)ccc1Oc1ccn2ncnc2c1 showed cell viability equal to 98.4%

Tested on HepG2, the item CCCCOC(=O)c1ccc(N)cc1 showed cell viability equal to 112%

Tested on HepG2, the item COc1cc2c(NC3CCN(CC4CCCCC4)CC3)nc(N3CCCN(C(C)C)CC3)nc2cc1OCCCN1CCCCC1 showed cell viability equal to 96.3%

Tested on HepG2, the item O=C(CCCN1CCC2(CC1)C(=O)N(Cc1cccc(F)c1)CN2c1ccccc1)c1ccc(F)cc1 showed cell viability equal to 103%

Tested on HepG2, the item CC(C)N(C[C@H]1O[C@@H](n2cnc3c(N)ncnc32)[C@H](O)[C@@H]1O)[C@H]1C[C@@H](CCc2nc3cc(C(C)(C)C)ccc3[nH]2)C1 showed cell viability equal to 105%

Tested on HepG2, the item NCCc1cc[nH]n1 showed cell viability equal to 98%
